These measurements were taken from paper PMC10584170.

Kindly supply the reported Cytotox ratio Pf GC-ATP values for the records listed here.
System: P. falciparum gametocytes
Assay: P. falciparum Gametocyte Viability ATP Assay (PfGCT)
Type: cell-based, Plasmodium falciparum
Conditions: Mean TOX HepG2 over GC-ATP IC50; GREEN = >10-fold; RED = <10-fold

Reported Cytotox ratio Pf GC-ATP for Cc1sc2ncnc(Sc3nnc(N)s3)c2c1C [TC60] was 141.5

Reported Cytotox ratio Pf GC-ATP for Br.c1cc(Nc2nc(-c3ccc(-c4csc(Nc5ccncc5)n4)cc3)cs2)ccn1 [TC35] was 30.9

Reported Cytotox ratio Pf GC-ATP for Nc1cc(C=Cc2ccc([N+](=O)[O-])s2)nc2ccccc12 [TC80] was 7.8

Reported Cytotox ratio Pf GC-ATP for COCCCNC(=S)NN=C(C)c1ccccn1 [TC19] was 54.6

Reported Cytotox ratio Pf GC-ATP for CN(C)CCCn1c(N)c(-c2nc3ccccc3[nH]2)c2nc(C#N)c(C#N)nc21 [TC72] was 37.7

Field: Cytotox ratio Pf GC-ATP. Fill in for each record below.
1. CCN(CC)CCN(Cc1ccc(-c2ccc(C(F)(F)F)cc2)cc1)C(=O)Cn1cc(Cc2cnn(C)c2)c(=O)nc1/C=C/c1cccc(F)c1F.O=C(O)C(O)C(O)C(=O)O [TC18]
2. COc1ccc2nc3cc(Cl)ccc3c(NCCCCNc3c4ccc(Cl)cc4nc4ccc(OC)cc34)c2c1 [TC02]
3. Br.c1cc(C2=NC3CCCCC3N2)ccc1OCCCOc1ccc(C2=NC3CCCCC3N2)cc1 (stereo not drawn) [TC17]

[72.7, 42.0, 65.7]

Reported Cytotox ratio Pf GC-ATP for O=c1c(Br)ccccc1Br [TC48] was 54.5
